# Assayed System: CXCR4 on cultured U937 and Jurkat cells (human, UniProt P61073 1-352)
# Sequence (P61073 whole entry): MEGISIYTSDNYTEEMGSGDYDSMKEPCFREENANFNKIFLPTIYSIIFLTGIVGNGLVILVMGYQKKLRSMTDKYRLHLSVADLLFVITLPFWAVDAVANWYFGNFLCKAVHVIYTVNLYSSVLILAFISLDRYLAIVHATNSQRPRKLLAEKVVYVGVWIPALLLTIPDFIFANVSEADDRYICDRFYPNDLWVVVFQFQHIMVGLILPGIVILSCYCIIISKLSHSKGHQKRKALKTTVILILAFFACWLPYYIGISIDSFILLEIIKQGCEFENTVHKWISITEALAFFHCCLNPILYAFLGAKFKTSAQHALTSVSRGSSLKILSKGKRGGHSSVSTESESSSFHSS
# Method Notes: cell-based or functional assay
Square brackets hold non-standard residues; d marks the D form. Ends that are not written are not given here.
Please provide measured Percent Inhibition of CXCR4/CXCL12 Induced p-MEK (1 µM Test Article) for the entries that follow.
Answers are plain numbers, in %.

As a guide, the following entries are already answered.
LRRYHHSVRSSLRPFTK [SEQ ID NO: 59]
93
LRRFHHSVRSSLRPYTK [SEQ ID NO: 53]
98
LRRYHHSVRSTLRPYTK [SEQ ID NO: 71]
94
LRDYHHSVRSSLRPYTK [SEQ ID NO: 36]
-5
LERYHHS[dA]RSSLRGYTK [SEQ ID NO: 81]
20

For the 2 binders below, give their Percent Inhibition of CXCR4/CXCL12 Induced p-MEK (1 µM Test Article) values.
1. LERYHHS[dA]RSTLRPYTK [SEQ ID NO: 77]
2. LRRYHHSVRTSLRPYTK [SEQ ID NO: 70]

Ans:
[68, 93]

For the 7 binders below, give their Percent Inhibition of CXCR4/CXCL12 Induced p-MEK (1 µM Test Article) values.
1. LERYHHS[dA]RTSLRPYTK [SEQ ID NO: 76]
2. LRRYHHSVRSSLRPYSK [SEQ ID NO: 72]
3. LRRYHHSVDSSLRPYTK [SEQ ID NO: 66]
4. LERYHHSVRSSLRPYTK-NH2 [SEQ ID NO: 56]
5. LERYHHSVRSSLRGYTK [SEQ ID NO: 80]
6. LRRYHHSVRSSLRPYTK [SEQ ID NO: 3]
7. LERYHHSVRSTLRPYTK [SEQ ID NO: 74]

Ans:
1: 44; 2: 86; 3: 13; 4: 98; 5: 96; 6: 91; 7: 93

For the 5 binders below, give their Percent Inhibition of CXCR4/CXCL12 Induced p-MEK (1 µM Test Article) values.
1. LERYHHSVRSSLRPYT [SEQ ID NO: 18]
2. LERYHHS[dA]RSSLRPFTK [SEQ ID NO: 61]
3. LRRYHHSVRSSLRPYTK-NH2 [SEQ ID NO: 16]
4. LERYHHTVRSSLRPYTK [SEQ ID NO: 39]
5. [dA]ERYHHS[dA]RSSLRPYTK [SEQ ID NO: 35]

Ans:
1. 78
2. 46
3. 100
4. 95
5. -6

Q: Request the reported Percent Inhibition of CXCR4/CXCL12 Induced p-MEK (1 µM Test Article) associated with LRRYHHSVRSSLRGYTK [SEQ ID NO: 79]
Ans: 100
